# subject-of-test: T1, hu-IL-36γ (human IL-36γ, N-terminally truncated active form S18-D169) (human, UniProt Q9NZH8 18-169)
# T1 sequence: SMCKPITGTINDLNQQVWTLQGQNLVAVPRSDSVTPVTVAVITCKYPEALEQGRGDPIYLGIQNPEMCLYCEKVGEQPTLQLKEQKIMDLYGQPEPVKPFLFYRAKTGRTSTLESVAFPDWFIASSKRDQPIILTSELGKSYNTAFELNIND
# experiment: cell-based or functional assay
Please go through the items and note down their IC50, HEK-Blue IL-36R SEAP reporter assay.
Give bare numbers, in nM.

- binder: "mAb3.0 recombinant human IgG1 (antibody, V domains shown) VH: QLQLQESGPGLVKPSETLSLTCTVSGGSISSTSYYWGWIRQPPGKGLEWIGSIHYSGNTYYNPSLKSRVTISVDTSKNQFSLKLSSVTAADTAVYYCARVHYGGYIPRRFDHWGQGTLVTVSS VL: QSVLTQPPSVSGAPGQRVTISCTGSSSNIGAGYDVHWYQQLPGTAPKLLIYGNTNRPSGVPDRFSGSKSGTSASLAITGLQAEDEADYYCQSYDYSLRGYVFGGGTKLTVL"
  assay-value: 30
- binder: "mAb5.0 recombinant human IgG1 (antibody, V domains shown) VH: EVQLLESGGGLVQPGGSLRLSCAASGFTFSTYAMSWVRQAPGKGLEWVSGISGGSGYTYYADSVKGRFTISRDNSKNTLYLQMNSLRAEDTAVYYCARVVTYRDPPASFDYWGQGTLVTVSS VL: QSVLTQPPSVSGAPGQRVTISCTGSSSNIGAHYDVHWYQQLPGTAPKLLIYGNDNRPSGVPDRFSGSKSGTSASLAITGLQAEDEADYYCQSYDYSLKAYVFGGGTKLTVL"
  assay-value: 142
- binder: "mAb2.0 recombinant human IgG1 (antibody, V domains shown) VH: QLQLQESGPGLVKPSETLSLTCTVSGGSISTSSYYWGWIRQPPGKGLEWIGSIYYTGNTYYNPSLKSRVTISVDTSKNQFSLKLSSVTAADTAVYYCARVRYGVGVPRYFDPWGQGTLVTVSS VL: QSVLTQPPSVSGAPGQRVTISCTGSSSNIGAHYDVHWYQQLPGTAPKLLIYGNDNRPSGVPDRFSGSKSGTSASLAITGLQAEDEADYYCQSYDYSLSGYVFGGGTKLTVLG"
  assay-value: 7.5

Ask: Item under review: mAb4.0 recombinant human IgG1 (antibody, V domains shown) VH: QLQLQESGPGLVKPSETLSLTCTVSGGSIGSRSYYWGWIRQPPGKGLEWIGSIHYSGTTYYNPSLKSRVTISVDTSKNQFSLKLSSVTAADTAVYYCARVAPSYPRVFDYWGQGTLVTVSS VL: QSVLTQPPSVSGAPGQRVTISCTGSSSNIGAGYDVHWYQQLPGTAPKLLIYGNRNRPSGVPDRFSGSKSGTSASLAITGLQAEDEADYYCQSYDYSLRVYVFGGGTKLTVL . Reported IC50, HEK-Blue IL-36R SEAP reporter assay?
Reply: 52
